# Target system: D3 DAR (Homo sapiens, UniProt P35462)
# Sequence (P35462 whole entry): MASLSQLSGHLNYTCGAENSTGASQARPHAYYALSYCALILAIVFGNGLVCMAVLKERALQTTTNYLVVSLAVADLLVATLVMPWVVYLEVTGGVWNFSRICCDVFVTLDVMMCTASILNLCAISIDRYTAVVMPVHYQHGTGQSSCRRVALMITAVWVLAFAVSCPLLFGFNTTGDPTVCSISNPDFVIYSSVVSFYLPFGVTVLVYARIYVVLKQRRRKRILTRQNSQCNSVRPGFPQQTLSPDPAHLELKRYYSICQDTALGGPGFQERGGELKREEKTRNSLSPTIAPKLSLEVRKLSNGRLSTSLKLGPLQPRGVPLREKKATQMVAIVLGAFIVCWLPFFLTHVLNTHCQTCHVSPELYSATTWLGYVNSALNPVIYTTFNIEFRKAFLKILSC
# Measurement notes: DiscoverX D3 DAR β-arrestin recruitment assay
# Type: cell-based
# Parameters: host or cells: CHO
# Experimental conditions: Imax=maximum inhibition; EC80 DA (30 nM)
Endpoint: Emax

Check out these entries, answers already filled in.
What measured Emax goes with Cc1[nH]c(C)c(S(=O)(=O)Nc2ccc(F)c(Cl)c2)c1C(=O)N1CCCC1 ? 80 to 100%

Which Emax is listed for Cc1[nH]c(C)c(S(=O)(=O)Nc2cc(Cl)c(C(F)(F)F)c(Cl)c2)c1C(=O)N1CCC(F)(F)C1 ? 80 to 100%

Others:
Requested field: Emax. Item: Cc1cccc(CNC(=O)c2sc(=O)n(Cc3c(C)cccc3C)c2C)c1 80 to 100%

---

# Target system: 5-HT6 receptor (Homo sapiens)
# Sequence (P50406 whole entry): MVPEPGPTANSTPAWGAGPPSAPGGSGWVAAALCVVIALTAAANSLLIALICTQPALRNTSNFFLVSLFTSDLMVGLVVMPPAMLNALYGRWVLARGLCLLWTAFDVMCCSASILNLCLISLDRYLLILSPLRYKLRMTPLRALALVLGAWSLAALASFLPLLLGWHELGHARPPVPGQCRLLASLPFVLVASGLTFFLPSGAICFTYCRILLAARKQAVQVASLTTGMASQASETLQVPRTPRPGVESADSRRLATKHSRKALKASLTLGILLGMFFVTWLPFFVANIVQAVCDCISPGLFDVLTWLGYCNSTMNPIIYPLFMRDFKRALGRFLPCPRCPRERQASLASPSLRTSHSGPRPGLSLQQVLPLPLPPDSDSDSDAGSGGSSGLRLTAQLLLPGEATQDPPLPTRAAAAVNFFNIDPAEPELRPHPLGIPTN
# Measurement notes: 5-HT6 cAMP recruitment assay
# Experimental conditions: read-out: IC50, antagonism of the 5-HT6 receptor
Endpoint: IC50

Reported IC50 for Cc1ccc(NS(=O)(=O)c2c(C)[nH]c(C)c2C(=O)N2CCCC2)cc1Cl : what is it? > 50 µM

---

# Target system: D3 DAR (Homo sapiens, UniProt P35462)
# Measurement notes: DiscoverX D3 DAR β-arrestin recruitment assay
# Format: cell-based
# Set-up: host or cells: CHO
# Experimental conditions: EC80 concentration of DA (30 nM); read-out: D3 DAR IC50
Parameter: IC50. Scope: all listed entries.

Guide cases for IC50, answers given:
May I ask what IC50 has been recorded for Cc1[nH]c(C)c(S(=O)(=O)Nc2ccc(F)c(Cl)c2)c1C(=O)N1CCCC1 ? 10 to 50 µM

Form field: reported IC50 of Cc1[nH]c(C)c(S(=O)(=O)Nc2ccc(C(F)(F)F)c(Br)c2)c1C(=O)N1CCCC1 < 10 µM

Name the reported IC50 value associated with the compound CCc1[nH]c(CC)c(S(=O)(=O)Nc2ccc(C(F)(F)F)c(Cl)c2)c1C(=O)N1CCCC1 10 to 50 µM

Any idea what IC50 was measured for Cc1ccc(NS(=O)(=O)c2c(C)[nH]c(C)c2C(=O)N2CCCC2)cc1Cl ? 10 to 50 µM

Please find the next compound below.
Which IC50 value belongs to Cc1ccc(NS(=O)(=O)c2c(C)[nH]c(C)c2C(=O)N2CCCC2)cc1C ? 10 to 50 µM

---

# Target system: D3 DAR (Homo sapiens)
# Measurement notes: Go BRET activation assay, D3 DAR
# Format: cell-based
# Experimental conditions: 5 min; EC80 DA (30 nM); read-out: D3 Go BRET Imax
Endpoint: Emax

Fill blank: measured Emax of the compound Cc1ccc(NS(=O)(=O)c2c(C)[nH]c(C)c2C(=O)N2CCCC2)cc1Cl [Cmp. 1] is ____. > 100%

Next:
What does the data say about its Emax? Entry: Cc1ccc(NS(=O)(=O)c2c(C)[nH]c(C)c2C(=O)N2CCCCC2)cc1Cl [compound 11] > 100%

Which Emax value belongs to Cc1[nH]c(C)c(S(=O)(=O)Nc2ccc(C(F)(F)F)c(Cl)c2)c1C(=O)O [compound 22] ? > 100%

Endpoint output: Emax of Cc1[nH]c(C)c(S(=O)(=O)Nc2cc(Cl)c(C(F)(F)F)c(Cl)c2)c1C(=O)N1CCC(F)(F)C1 [compound 35] . Value? 80 to 100%

Field request: Emax | item: [2H]C1([2H])CCC([2H])([2H])N1C(=O)c1c(C)[nH]c(C)c1S(=O)(=O)Nc1ccc(C(F)(F)F)c(Cl)c1 [compound 23] > 100%

Which value of Emax has been reported for Cc1ccc(NS(=O)(=O)c2c(C)[nH]c(C)c2C(=O)N2CCCC2C)cc1Cl (stereo not drawn) [compound 3] in the records? > 100%
